Each entry below carries its measured pIC50, system: Egl nine homolog 1 (Homo sapiens).
Sequence (Q9GZT9 whole entry): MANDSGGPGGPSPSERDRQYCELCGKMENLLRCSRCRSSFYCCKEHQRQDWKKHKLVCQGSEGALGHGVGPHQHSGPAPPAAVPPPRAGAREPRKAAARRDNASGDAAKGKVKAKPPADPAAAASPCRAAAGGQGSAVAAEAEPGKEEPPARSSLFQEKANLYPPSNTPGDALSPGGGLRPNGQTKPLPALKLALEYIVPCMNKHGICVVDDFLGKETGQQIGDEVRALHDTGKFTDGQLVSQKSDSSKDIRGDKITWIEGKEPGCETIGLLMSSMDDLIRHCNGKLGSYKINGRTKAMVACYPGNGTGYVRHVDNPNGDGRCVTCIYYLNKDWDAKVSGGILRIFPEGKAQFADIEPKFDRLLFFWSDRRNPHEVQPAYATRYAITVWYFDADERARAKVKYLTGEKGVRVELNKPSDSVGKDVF
pIC50: −log10 of the molar value.
readout kind: pIC50

INSERT INTO results (compound, readout_kind, value_modifier, reported_result) VALUES
  ('Cc1nc(Cc2cccc(-c3ccccc3)c2)nc(C(=O)NCC(=O)O)c1O', 'pIC50', '=', 4.70),
  ('Cc1nc(Cc2ccc(-c3ccccc3)cc2)nc(C(=O)NCC(=O)O)c1S', 'pIC50', '=', 4.89),
  ('O=C(O)CNC(=O)c1nc(Cc2ccc(-c3ccccc3)cc2)ncc1O', 'pIC50', '<', 4.00),
  ('CCc1nc(Cc2ccc(-c3ccccc3)cc2)nc(C(=O)NCC(=O)O)c1O', 'pIC50', '=', 5.14),
  ('Cc1nc(C(F)(F)c2ccc(-c3ccccc3)cc2)nc(C(=O)NCC(=O)O)c1O', 'pIC50', '=', 4.26),
  ('Cc1nc(Cc2ccc(-c3ccccc3)cc2)c(O)c(C(=O)NCC(=O)O)n1', 'pIC50', '=', 5.00),
  ('Cc1nc(Cc2ccc(C(F)(F)F)cc2)nc(C(=O)NCC(=O)O)c1O', 'pIC50', '=', 4.96),
  ('Cc1nc(C(=O)NCC(=O)O)c(O)c(-c2ccc(F)cc2)n1', 'pIC50', '=', 4.41),
  ('Cc1nc(Cc2ccc(-c3ccccc3)cc2)nc(C(=O)NCC(=O)O)c1O', 'pIC50', '=', 5.82),
  ('O=C(O)CNC(=O)c1nc(Cc2ccc(-c3ccccc3)cc2)nc(C(F)F)c1O', 'pIC50', '=', 5.39),
  ('Cc1nc(Cc2ccc(F)cc2)c(O)c(C(=O)NCC(=O)O)n1', 'pIC50', '=', 4.96),
  ('Cc1nc(Cc2ccc(-c3ccccc3)cc2)nc(C(=O)N[C@@H](C)C(=O)O)c1O', 'pIC50', '=', 5.00),
  ('Cc1nc(C(C)c2ccc(-c3ccccc3)cc2)nc(C(=O)NCC(=O)O)c1O (racemic)', 'pIC50', '=', 4.74),
  ('Cc1nc(Cc2ccc(-c3ccccc3)cc2)nc(C(=O)NCC(=O)O)c1C', 'pIC50', '<', 4.00),
  ('Cc1nc(Cc2ccc(C(C)(C)C)cc2)nc(C(=O)NCC(=O)O)c1O', 'pIC50', '=', 5.41);
